System: HT29 colon
Test description: NCI-60 one-dose screen, 48 h (100 = growth as untreated, 0 = no growth, -100 = all killed)
Details: 10 µM unless noted
About 83,000 compounds went through this panel and 20% of them were active in at least one assay; those are over-represented in the sample as a whole.
Cut-off 60% on growth, inclusive. At or above means Y; below means N.

[
  {
    "Compound": "Cc1ccc(C)n1/C=C/n1c(C)ccc1C",
    "Category label": "Y"
  },
  {
    "Compound": "COc1cc(C#Cc2ccc(=O)oc2C#Cc2ccccc2)cc(OC)c1OC",
    "Category label": "N"
  },
  {
    "Compound": "COc1cc2cc(Oc3ccc(NC(=O)Nc4ccccc4)cc3)c(C)nc2cc1OCCN1CCCCC1",
    "Category label": "N"
  },
  {
    "Compound": "CS(=O)(=O)Nc1cc(-c2ccc3ncnc(Nc4ccc5c(cnn5Cc5cccnc5)c4)c3c2)cnc1Cl",
    "Category label": "Y"
  },
  {
    "Compound": "COc1cccc(NC(=O)c2cccc(C3CCc4c(cc(OC)c(OC)c4OC)O3)c2)c1 (centres undefined)",
    "Category label": "Y"
  },
  {
    "Compound": "CCOC(=O)n1cc(-c2nonc2-c2cn(C)c3ccccc23)c2ccccc21",
    "Category label": "N"
  },
  {
    "Compound": "O=C1/C(=C/c2ccc(C(F)(F)F)cc2)COc2ccc(O)c(O)c21",
    "Category label": "N"
  },
  {
    "Compound": "COc1cc(OC)cc(C2C(C#N)=C(N)Oc3c2ccc2ccc(O)cc32)c1 (centres undefined)",
    "Category label": "N"
  }
]

The measurements presented in this section are drawn from PubChem BioAssay (NCI).
